These entries and their values trace back to ChEMBL document CHEMBL1158423.

Item-by-item account of log10 of MIC
Tested on: Staphylococcus aureus
Assay: Antibacterial activity against Staphylococcus aureus K1758 NorA efflux pump-deficient mutant after 18 hrs by twofold serial dilution method
Assay type: functional
Conditions: K1758, 18 h
Note the log scale: values are log10 of MIC expressed in µM.

COc1ccc2c(OCc3ccccc3)c3[n+](cc2c1OC)CCc1cc2c(cc1-3)OCO2.[Br-] :: 1.08

(Q) Quick one: log10 of MIC of COc1ccc2c(Cc3ccccc3-c3cc4cc([N+](=O)[O-])ccc4[nH]3)c3[n+](cc2c1OC)CCc1cc2c(cc1-3)OCO2 ?
(A) 0.49

(Q) What would you report for COc1ccc2c(OCc3ccc4ccccc4c3)c3[n+](cc2c1OC)CCc1cc2c(cc1-3)OCO2.[Br-] ?
(A) 0.74

(Q) What would you report for COc1ccc2c(OCc3ccc(C#N)cc3)c3[n+](cc2c1OC)CCc1cc2c(cc1-3)OCO2.[Br-] ?
(A) 1.96

(Q) What would you report for COc1ccc2cc3[n+](cc2c1OC)CCc1cc2c(cc1-3)OCO2 [BERBERINE CHLORIDE] ?
(A) 1.60

(Q) What would you report for COc1ccc2c(OCc3ccccn3)c3[n+](cc2c1OC)CCc1cc2c(cc1-3)OCO2.[Br-] ?
(A) 2.28

###

Item-by-item account of MIC
Tested on: Escherichia coli
Experiment: Antibacterial activity against Escherichia coli BW-25116 TolC-deficient mutant after 18 hrs by twofold serial dilution method
Type: functional
Details: BW25116, 18 h
Form entry: value (µM) — number only.

COc1ccc2cc3[n+](cc2c1OC)CCc1cc2c(cc1-3)OCO2 [BERBERINE CHLORIDE] :: 325
COc1ccc2c(OCc3ccc(C#N)cc3)c3[n+](cc2c1OC)CCc1cc2c(cc1-3)OCO2.[Br-] :: 91.4
COc1ccc2c(OCc3ccc4ccccc4c3)c3[n+](cc2c1OC)CCc1cc2c(cc1-3)OCO2.[Br-] :: 10.9
COc1ccc2c(OCc3ccccc3)c3[n+](cc2c1OC)CCc1cc2c(cc1-3)OCO2.[Br-] :: 12

Now look at this one.
(Q) Quick one: MIC of COc1ccc2c(OCc3ccccn3)c3[n+](cc2c1OC)CCc1cc2c(cc1-3)OCO2.[Br-] ?
(A) 191

###

Item-by-item account of MIC
Tested on: Escherichia coli
Test: Antibacterial activity against Escherichia coli K-12 after 18 hrs by twofold serial dilution method
Assay type: functional
Settings: K-12, 18 h

(Q) Quick one: MIC of COc1ccc2cc3[n+](cc2c1OC)CCc1cc2c(cc1-3)OCO2 [BERBERINE CHLORIDE] ?
(A) > 2600 µM

(Q) What would you report for COc1ccc2c(Cc3ccccc3-c3cc4cc([N+](=O)[O-])ccc4[nH]3)c3[n+](cc2c1OC)CCc1cc2c(cc1-3)OCO2 ?
(A) > 150 µM

(Q) What would you report for COc1ccc2c(OCc3ccc4ccccc4c3)c3[n+](cc2c1OC)CCc1cc2c(cc1-3)OCO2.[Br-] ?
(A) > 175 µM

(Q) What would you report for COc1ccc2c(OCc3ccccn3)c3[n+](cc2c1OC)CCc1cc2c(cc1-3)OCO2.[Br-] ?
(A) > 191 µM

(Q) What would you report for COc1ccc2c(OCc3ccccc3)c3[n+](cc2c1OC)CCc1cc2c(cc1-3)OCO2.[Br-] ?
(A) > 192 µM

(Q) What would you report for COc1ccc2c(OCc3ccc(C#N)cc3)c3[n+](cc2c1OC)CCc1cc2c(cc1-3)OCO2.[Br-] ?
(A) > 183 µM
